target: Transforming acidic coiled-coil-containing protein 3 (Homo sapiens) (UniProt Q9Y6A5); assay: inhibition of ARNT PAS-B/TACC3 complex formation – biochemical, AlphaScreen, cherry-picked samples, confirmation (AID 651703); details: AlphaScreen His-ARNT PAS-B / GST-TACC3 binding, luminescence;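 note: TACC3 partner is the GST-tagged E629A mutant dimer; hits lower the signal meaning they disrupt ARNT binding to TACC3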
Each entry below carries its recorded AC50.

SMILES | AC50
Cc1cccc(NC(=O)CSc2cccc3cccnc23)c1 | 21.8 µM
CCOc1ccccc1NC(=O)CN(c1ccc(OC)cc1)S(=O)(=O)c1c(C)[nH]c(=O)[nH]c1=O | 10.5 µM
O=C(COC(=O)c1ccc(O)cc1O)Nc1nnc(-c2ccccc2)o1 | 13.7 µM
CC(C)(C)CCNC(=O)c1cc(-c2ccccc2)on1 | 21.5 µM
O=C(CSc1n[nH]c(=O)[nH]c1=O)N/N=C/c1ccccc1O | 43 µM
O=C(N[C@@H]1CC[C@H](CCn2cc(-c3ccccn3)nn2)O[C@@H]1CO)c1cccnc1 | 13.5 µM
O=C(COc1nsnc1N1CCOCC1)N/N=C/c1ccccc1O | 34.9 µM
c1ccc(-c2nnc(-c3ccccn3)nc2NCCN2CCOCC2)cc1 | 0.593 µM
Cc1c(CCO)c(=O)n(-c2ccccc2)n1S(=O)(=O)c1c(Cl)cc(Cl)cc1Cl | 39.8 µM
O=C(NCCCNCCCNC(=O)c1ccc(/C=N/O)nc1)c1ccc(/C=N/O)nc1 | 4.96 µM

The reported measurements were obtained from PubChem BioAssay AID651703.
